For each entry below, report its IC50 value.
# tgt: cloned hNav1.8 channels expressed in CHO cells (Homo sapiens, UniProt Q9Y5Y9)
# Construct: expressed in transfected cells
# Sequence (Q9Y5Y9 whole entry): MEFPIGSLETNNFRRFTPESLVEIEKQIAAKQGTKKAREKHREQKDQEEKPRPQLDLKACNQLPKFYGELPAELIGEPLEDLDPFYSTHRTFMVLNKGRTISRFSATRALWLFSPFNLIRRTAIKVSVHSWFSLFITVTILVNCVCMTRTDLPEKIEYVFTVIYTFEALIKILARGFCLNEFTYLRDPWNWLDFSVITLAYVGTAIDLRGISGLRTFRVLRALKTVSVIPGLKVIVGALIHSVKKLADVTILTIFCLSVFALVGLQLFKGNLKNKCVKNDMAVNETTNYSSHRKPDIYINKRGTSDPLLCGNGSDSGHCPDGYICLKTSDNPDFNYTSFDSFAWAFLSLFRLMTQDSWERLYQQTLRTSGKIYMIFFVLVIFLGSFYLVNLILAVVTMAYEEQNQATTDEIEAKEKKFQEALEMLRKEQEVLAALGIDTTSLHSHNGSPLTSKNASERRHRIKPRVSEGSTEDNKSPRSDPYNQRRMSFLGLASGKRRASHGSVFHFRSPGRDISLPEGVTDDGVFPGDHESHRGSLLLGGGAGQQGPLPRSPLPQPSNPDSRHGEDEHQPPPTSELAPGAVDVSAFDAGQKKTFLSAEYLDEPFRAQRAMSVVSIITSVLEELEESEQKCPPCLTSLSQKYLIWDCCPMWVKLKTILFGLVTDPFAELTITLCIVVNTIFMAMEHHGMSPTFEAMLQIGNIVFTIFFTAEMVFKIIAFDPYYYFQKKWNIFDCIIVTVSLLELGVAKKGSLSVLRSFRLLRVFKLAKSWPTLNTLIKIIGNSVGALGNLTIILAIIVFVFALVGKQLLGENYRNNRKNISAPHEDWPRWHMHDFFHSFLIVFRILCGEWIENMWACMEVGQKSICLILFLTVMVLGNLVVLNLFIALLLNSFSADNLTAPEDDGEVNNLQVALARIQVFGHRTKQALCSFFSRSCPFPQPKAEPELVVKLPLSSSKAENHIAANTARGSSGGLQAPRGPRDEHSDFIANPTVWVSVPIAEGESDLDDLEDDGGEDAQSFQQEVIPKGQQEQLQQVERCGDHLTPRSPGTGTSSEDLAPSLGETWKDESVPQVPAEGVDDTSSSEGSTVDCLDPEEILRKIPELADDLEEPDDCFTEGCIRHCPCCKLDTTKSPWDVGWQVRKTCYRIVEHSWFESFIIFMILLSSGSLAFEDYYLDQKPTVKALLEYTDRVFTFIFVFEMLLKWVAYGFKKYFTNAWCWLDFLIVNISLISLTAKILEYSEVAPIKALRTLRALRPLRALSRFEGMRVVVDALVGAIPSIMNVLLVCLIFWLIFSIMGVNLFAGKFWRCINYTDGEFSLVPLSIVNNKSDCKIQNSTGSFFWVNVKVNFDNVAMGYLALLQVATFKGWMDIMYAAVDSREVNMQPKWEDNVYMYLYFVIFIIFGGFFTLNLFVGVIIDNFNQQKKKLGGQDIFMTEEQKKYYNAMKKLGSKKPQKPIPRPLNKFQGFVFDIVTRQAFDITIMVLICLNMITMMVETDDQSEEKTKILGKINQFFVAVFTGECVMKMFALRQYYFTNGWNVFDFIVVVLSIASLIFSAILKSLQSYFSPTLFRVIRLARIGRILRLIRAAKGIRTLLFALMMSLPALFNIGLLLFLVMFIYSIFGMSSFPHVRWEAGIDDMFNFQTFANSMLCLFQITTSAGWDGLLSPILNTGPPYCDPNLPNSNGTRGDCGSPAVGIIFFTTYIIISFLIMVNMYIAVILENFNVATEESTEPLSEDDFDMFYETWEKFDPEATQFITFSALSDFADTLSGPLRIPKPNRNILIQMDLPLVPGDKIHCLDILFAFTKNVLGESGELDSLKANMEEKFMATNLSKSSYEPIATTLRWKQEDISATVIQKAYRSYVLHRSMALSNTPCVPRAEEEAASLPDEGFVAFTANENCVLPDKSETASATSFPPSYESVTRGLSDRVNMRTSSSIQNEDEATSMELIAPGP
# experiment: Na+ channel blocking examination, automated whole-cell patch clamp (IonWorks Quattro)
# Assay type: cell-based
# particulars: hNav1.8 in CHO cells; test pulse TP12 (inactivated state block); read-out: IC50, type of block: Inactivated state

Worked set:
Task: Dear colleague, please send me the reported IC50 for `COCCOCCOCCOCCOCCOCCOCCOCCOCCOC(=O)N[C@H](COC)C(=O)NCc1ccccc1` when you can.
Output: > 300 µM

Task: State its IC50: `COCCOCCOCCOCCOC(=O)N[C@H](COC)C(=O)NCc1ccccc1`
Output: > 300 µM

Task: Specify IC50 for `COCCOCCOCCOC(=O)N[C@H](COC)C(=O)NCc1ccccc1` and stop.
Output: 239 µM

Task: Look up and report measured IC50 for this entry: `COCCOCCOC(=O)N[C@H](COC)C(=O)NCc1ccccc1`
Output: 166 µM

Task: Give the reported IC50 for this compound. `COCCOCCOCCOCCOCCOC(=O)N[C@H](COC)C(=O)NCc1ccccc1`
Output: > 300 µM

Hey, can you go through the list below and give me IC50 for every item?
1. COCCOCCOCCOCCOCCOCCOCCOCCOC(=O)N[C@H](COC)C(=O)NCc1ccccc1
2. COCCOCCOCCOCCOCCOCCOC(=O)N[C@H](COC)C(=O)NCc1ccccc1
3. COCCOC(=O)N[C@H](COC)C(=O)NCc1ccccc1
4. COCCOCCOCCOCCOCCOCCOCCOC(=O)N[C@H](COC)C(=O)NCc1ccccc1

Output:
> 300 µM
> 300 µM
267 µM
> 300 µM
